study system: B-RAF G466V (Homo sapiens, UniProt P15056, G466V)
Construct: expressed in transfected cells; host or cells: T-Rex 293 cells (Invitrogen #R71007)
Sequence (P15056 whole entry G466V): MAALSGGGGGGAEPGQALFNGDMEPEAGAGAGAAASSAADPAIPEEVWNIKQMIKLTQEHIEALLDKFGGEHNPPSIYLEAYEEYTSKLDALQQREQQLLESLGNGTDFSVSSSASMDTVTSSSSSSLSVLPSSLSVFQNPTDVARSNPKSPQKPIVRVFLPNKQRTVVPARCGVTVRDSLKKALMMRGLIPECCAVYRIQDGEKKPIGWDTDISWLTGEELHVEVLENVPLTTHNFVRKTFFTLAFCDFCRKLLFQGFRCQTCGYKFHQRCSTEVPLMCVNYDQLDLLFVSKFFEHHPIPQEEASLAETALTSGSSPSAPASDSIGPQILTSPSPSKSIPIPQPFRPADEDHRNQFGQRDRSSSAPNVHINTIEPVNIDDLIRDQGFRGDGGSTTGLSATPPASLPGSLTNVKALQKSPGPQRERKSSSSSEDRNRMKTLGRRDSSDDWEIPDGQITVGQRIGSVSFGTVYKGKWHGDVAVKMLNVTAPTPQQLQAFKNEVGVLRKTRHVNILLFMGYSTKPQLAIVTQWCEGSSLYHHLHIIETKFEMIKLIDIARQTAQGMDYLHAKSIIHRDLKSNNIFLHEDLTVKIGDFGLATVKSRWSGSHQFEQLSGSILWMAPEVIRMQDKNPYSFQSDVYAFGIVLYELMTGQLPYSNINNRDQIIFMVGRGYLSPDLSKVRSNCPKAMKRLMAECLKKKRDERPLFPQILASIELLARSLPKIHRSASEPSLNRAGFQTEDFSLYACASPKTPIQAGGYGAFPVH
assay remarks: Target protein degradation, assay D: T-Rex 293 cells, HA-BRAF_G466V, 384 well format
Assay type: cell-based
condition label: T-REx-293, Assay D, T-Rex 293 HA-BRAF_G466V cells, 24 hours, Examples 83-269
value kind: Dmax

compound	Dmax
N#Cc1c(NS(=O)(=O)N2CC[C@H](F)C2)ccc(F)c1Oc1ccc2ncn(-c3ccc(N4CCN(CC5CN(c6ccc7c(c6)CN([C@H]6CCC(=O)NC6=O)C7=O)C5)CC4)cc3)c(=O)c2c1	≤ 35%
C[C@H]1CC(CN2CCC(c3ccc4c(c3)CN(C3CCC(=O)NC3=O)C4=O)CC2)CCN1c1ccc(-n2cnc3ccc(Oc4c(F)ccc(NS(=O)(=O)N5CC[C@@H](F)C5)c4C#N)cc3c2=O)cc1 (stereo partly drawn)	35 to 70%

Quick one: Dmax for N#Cc1c(NS(=O)(=O)N2CC[C@@H](F)C2)ccc(F)c1Oc1ccc2ncn(-c3ccc(N4CCN(CCCOc5ccc6c(c5)C(=O)N(C5CCC(=O)NC5=O)C6=O)CC4)nc3)c(=O)c2c1 (stereo partly drawn) ?
≤ 35%

Quick one: Dmax for N#Cc1c(NS(=O)(=O)N2CC[C@@H](F)C2)ccc(F)c1Oc1ccc2ncn(-c3cnc(N4CCC(CN5CCC6(CC5)CCN(c5ccc7c(c5)C(=O)N(C5CCC(=O)NC5=O)C7=O)CC6)CC4)nc3)c(=O)c2c1 (stereo partly drawn) ?
35 to 70%

Quick one: Dmax for CC(C)(C1CCN(c2ccc(-n3cnc4ccc(Oc5c(F)ccc(NS(=O)(=O)N6CC[C@@H](F)C6)c5C#N)cc4c3=O)cc2)CC1)N1CCN(c2ccc3c(c2)CN([C@H]2CCC(=O)NC2=O)C3=O)CC1 ?
≥ 70%

Quick one: Dmax for N#Cc1c(NS(=O)(=O)N2CC[C@@H](F)C2)ccc(F)c1Oc1ccc2ncn(-c3ccc(N4CCC5(CC4)CN(CC4CCN(c6ccc7c(c6)CN([C@@H]6CCC(=O)NC6=O)C7=O)CC4)C5)cc3)c(=O)c2c1 ?
35 to 70%

Quick one: Dmax for CN(CC1CCN(c2ccc(-n3cnc4ccc(Oc5c(F)ccc(NS(=O)(=O)N6CC[C@@H](F)C6)c5C#N)cc4c3=O)cc2)CC1)[C@H]1C[C@@H](Oc2ccc3c(c2)CN([C@H]2CCC(=O)NC2=O)C3=O)C1 ?
≤ 35%

Quick one: Dmax for N#Cc1c(NS(=O)(=O)N2CC[C@@H](F)C2)ccc(F)c1Oc1ccc2ncn(-c3ccc(N4CCN(CC5(F)CCN(c6ccc7c(c6)CN([C@H]6CCC(=O)NC6=O)C7=O)CC5)CC4)cc3)c(=O)c2c1 ?
35 to 70%

Quick one: Dmax for N#Cc1c(NS(=O)(=O)N2CC[C@@H](F)C2)ccc(F)c1Oc1ccc2ncn(-c3ccc(C4CCN([C@H]5C[C@H](OC6CCN(c7ccc8c(c7)CN(C7CCC(=O)NC7=O)C8=O)CC6)C5)CC4)cc3)c(=O)c2c1 (stereo partly drawn) ?
35 to 70%
